Values compiled from patent US20230130823A1.

Test system: Colo205
Experiment: In vitro cytotoxicity, Colo205 colon line
Assay type: cell-based
Conditions: Homo sapiens, COLO 205; Colo205, Table 3; read-out: CI50% (the source's name)
pIC50: −log10 of the molar value.
Endpoint Label: pIC50

compound="O=CC=C(Cl)c1ccccc1OC(=O)c1ccccc1 [Compound 5, 3-Chloro-3-(2-benzoyloxy-phenyl)propenal]" reported_result=3.83

* * *

Tested on: 4T1 (murine mammary carcinoma)
Test: Cytotoxicity, 4T1 cells
Assay type: cell-based
Details: Mus musculus, read-out: CI50% tumor cells
pIC50: −log10 of the molar value.
Response key: T means pIC50 >= 5; F means pIC50 < 5.

compound="CC(=O)C(=C/C=C(\\Cl)c1ccc(I)cc1)C(C)=O [Compound 18]" label=T
compound="CC(=O)C(=C/C=C(\\Cl)c1ccc(C#C[C@@H]2O[C@H](CO)[C@@H](O)[C@H](O)[C@@H]2O)cc1)C(C)=O [Compound 18B]" label=T
compound="COc1ccc(C(=O)/C(C#N)=C/C=C(\\Cl)c2ccc(I)cc2)cc1OC [Compound 21]" label=T
compound="COc1ccc(/C=C/C(Cl)=C/C=O)cc1OC [Compound 23]" label=F

* * *

Test system: HT-29
Assay: In vitro cytotoxicity, HT-29 colon line
Format: cell-based
Conditions: Homo sapiens; HT-29, colon; read-out: IC50
pIC50: −log10 of the molar value.
This section presents molecules with their documented pIC50 values.
Endpoint Label: pIC50

smiles_text=CC(C)=CCOc1ccc(C(C)=C(C#N)C#N)cc1 endpoint_label=pIC50 reported_result=4.04
smiles_text=CCSC(=CC(=C(C#N)C#N)c1ccc(OCC=C(C)C)cc1)SCC endpoint_label=pIC50 reported_result=5.41
smiles_text=N#CC(C#N)=C/C=C(\Cl)c1ccccc1OC(=O)c1ccccc1 endpoint_label=pIC50 reported_result=5.35
smiles_text=CC(=O)c1ccc(OCC=C(C)C)cc1 endpoint_label=pIC50 reported_result=3.34

* * *

Test system: HUVEC (Normal human endothelial cell)
Experiment: Cytotoxicity, HUVEC normal cells
Endpoint Label: CI50% Normal cells (µM)

compound=COc1ccc(/C=C/C(Cl)=C/C=C(C(C)=O)C(C)=O)cc1OC reported_result=114
compound=COc1ccc(C(=O)/C(C#N)=C/C=C(\Cl)c2ccc(I)cc2)cc1OC reported_result=16.4
compound="CC(=O)C(=C/C=C(\\Cl)c1ccc(C#C[C@@H]2O[C@H](CO)[C@@H](O)[C@H](O)[C@@H]2O)cc1)C(C)=O [Compound 18B]" reported_result=0.293
compound=COc1ccc(/C=C/C(Cl)=C/C=O)cc1OC reported_result=30.1

* * *

System: MCF-7 (human mammary adenocarcinoma)
Test: Cytotoxicity, MCF-7 cells
Assay type: cell-based
Settings: MCF7, read-out: CI50% tumor cells
This section presents compounds with their documented IC50 values.
Endpoint Label: IC50 (µM)

compound="CC(=O)C(=C/C=C(\\Cl)c1ccc(I)cc1)C(C)=O [Compound 18]" endpoint_label=IC50 reported_result=0.666
compound="COc1ccc(/C=C/C(Cl)=C/C=O)cc1OC [Compound 23]" endpoint_label=IC50 reported_result=54.6
compound="COc1ccc(C(=O)/C(C#N)=C/C=C(\\Cl)c2ccc(I)cc2)cc1OC [Compound 21]" endpoint_label=IC50 reported_result=0.293
compound="COc1cc(/C=C/C(=O)/C=C/C=C(Cl)/C=C/c2ccc(OC)c(OC)c2)ccc1O [Compound 29]" endpoint_label=IC50 reported_result=0.701
